pIC50 by entry:
target: Tissue-type plasminogen activator (Homo sapiens, UniProt P00750); experiment: Inhibition of recombinant tPA
Sequence (P00750 whole entry): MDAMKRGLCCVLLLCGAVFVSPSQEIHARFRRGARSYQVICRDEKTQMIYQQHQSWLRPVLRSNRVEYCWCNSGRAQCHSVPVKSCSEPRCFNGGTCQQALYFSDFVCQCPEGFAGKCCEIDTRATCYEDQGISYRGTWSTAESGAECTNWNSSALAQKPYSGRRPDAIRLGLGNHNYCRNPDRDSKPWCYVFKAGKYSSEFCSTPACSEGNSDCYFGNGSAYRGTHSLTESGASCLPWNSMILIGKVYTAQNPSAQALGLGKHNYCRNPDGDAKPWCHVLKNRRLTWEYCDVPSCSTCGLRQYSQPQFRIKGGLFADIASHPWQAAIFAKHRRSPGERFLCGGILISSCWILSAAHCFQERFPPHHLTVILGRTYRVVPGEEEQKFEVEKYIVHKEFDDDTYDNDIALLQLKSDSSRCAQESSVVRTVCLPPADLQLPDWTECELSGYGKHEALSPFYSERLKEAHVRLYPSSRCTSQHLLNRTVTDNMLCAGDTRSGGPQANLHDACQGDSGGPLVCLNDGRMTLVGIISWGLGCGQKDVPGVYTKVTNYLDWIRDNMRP
pIC50: −log10 of the molar value.
assay_metric: pIC50

[[record]]
compound = "C[C@H](NC(=O)[C@@H](CO)NC(=O)c1ccccc1)C(=O)NC(Cc1ccc(N=C(N)N)cc1)P(=O)(Oc1ccccc1)Oc1ccccc1 (some centres undefined)"
assay_metric = "pIC50"
val = 4.82

[[record]]
compound = "C[C@H](NC(=O)[C@@H](CO)NC(=O)C1C2CC3CC(C2)CC1C3)C(=O)NC(Cc1ccc(NC(=N)N)cc1)P(=O)(Oc1ccccc1)Oc1ccccc1 (some centres undefined)"
assay_metric = "pIC50"
val = 5.07

[[record]]
compound = "C[C@H](NC(=O)[C@@H](CO)NC(=O)c1cccs1)C(=O)NC(Cc1ccc(N=C(N)N)cc1)P(=O)(Oc1ccccc1)Oc1ccccc1 (some centres undefined)"
assay_metric = "pIC50"
val = 4.89

[[record]]
compound = "C[C@H](NC(=O)[C@@H](CO)NC(=O)OCc1ccccc1)C(=O)NC(Cc1ccc(N=C(N)N)cc1)P(=O)(Oc1ccccc1)Oc1ccccc1 (some centres undefined)"
assay_metric = "pIC50"
val = 5.34


Origin of measurements: ChEMBL document CHEMBL1149362
